- Protocol notes: small-molecule microarray binders of probe aDKK1, primary screen, biochemical, biotinylated probe, 635/667 nm fluorescence (AID 1099);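 note: score merges 667nm spot fluorescence with signal to noise across triplicate slides; reference of the scale not given here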
- Measurement conditions: higher = more signal
Below, each of the compounds is paired with its reported composite z-score value.

Compound	composite z-score
CCCC[C@@H]1C[C@H]1[C@@H](NC(=O)c1ccc(-c2ccccc2)cc1)c1ccc(-c2ccccc2)cc1	0.126
C=CCNC(=O)[C@@H]1[C@H]2C(=O)O[C@H](c3ccccc3)[C@H](c3ccccc3)N2[C@H](c2ccccc2OCCO)[C@@]12C(=O)Nc1ccc(C#CC3=CCCCC3)cc12	-0.0328
COCCOC(=O)N1C(=O)[C@@]2(c3cc(C#CCC(C(=O)OC)C(=O)OC)ccc31)[C@H](C(=O)N1CCN(c3ncccn3)CC1)[C@H]1C(=O)O[C@H](c3ccccc3)[C@H](c3ccccc3)N1[C@@H]2c1ccc(OCCO)cc1	-0.0747
Cc1cc(C)c(C(O)C2C=CC3C(=O)N(C)C(=O)C3N2Nc2ccccc2)c(C)c1 (stereo unspecified)	1.84
O=C(CS)NCCCCCCNC(=O)[C@H]1C[C@H]2C(=O)NCC(=O)N2[C@H]1c1ccc(O)cc1	-0.213
C=CCC(OC(C)=O)[C@@H]1[C@@H](N(Cc2cc3ccccc3o2)C(=O)c2ccc(C)cc2)c2cc(OCCCO)ccc2N1C(=O)c1ccc2ccccc2c1 (stereo partly specified)	-0.0022
Cc1ccc(S[C@]2(C(=O)NCc3ccccc3)CC(=O)N(Cc3ccccc3)[C@@H]2c2ccc(CO)cc2)cc1	0.114
Cc1ccc(F)cc1S(=O)(=O)N[C@@H]1CCN(Cc2ccc(-c3ccccc3)cc2)C1	-0.188
C=CCOC(=O)[C@H]1[C@@H]2C(=O)O[C@@H](c3ccccc3)[C@@H](c3ccccc3)N2[C@@H](c2ccc(OCCOC(=O)[C@@H]3C[C@@H]4C(=O)N5CCC[C@H]5C(=O)N4[C@@H]3c3ccc(O)cc3)cc2)[C@]12C(=O)Nc1ccccc12	-0.294
C=CCC(OC(C)=O)[C@@H]1[C@@H](N(Cc2cccc3ccccc23)C(=O)c2ccc(C)cc2)c2cc(OCCCO)ccc2N1C(=O)Cc1ccc(OC)cc1 (stereo partly specified)	-0.413
CC1CC/C=C\[C@H]2OC34C=CCN(Cc5ccccc5)C(=O)[C@H]3N(CCCCCO)C(=O)[C@@H]4C2C(=O)O1 (stereo partly specified)	-0.425
NCCCCCCNC(=O)[C@H]1C[C@H]2C(=O)NCC(=O)N2[C@H]1c1cccc(OCCO)c1	0.0447
CC(C)(C)N1CC=CC23O[C@@H]4C=CCOC(=O)[C@@H]4[C@H]2C(=O)N(CCCCCO)[C@@H]3C1=O (stereo partly specified)	-0.275
Cc1cc(C)c(C(O)C2C=CC3C(=O)N(c4ccccc4)C(=O)C3N2Nc2ccc(C#N)cc2)c(C)c1 (stereo unspecified)	1.05
C[C@H]1NC(=O)[C@H](Cc2ccccc2)NC(=O)[C@@]23C(=O)N[C@@H](Cc4ccccc4)C2[C@H](C)[C@@]2(C)O[C@H]2C3/C=C/C/C=C\CNC1=O (stereo partly specified)	-0.245
O=C1O[C@@H](c2ccccc2)[C@@H](c2ccccc2)N2[C@@H](c3ccc(OCCO)cc3)[C@]3(C(=O)Nc4ccccc43)[C@@H](C(=O)Nc3nc4ccccc4s3)[C@H]12	0.738
O=C1O[C@H](c2ccccc2)[C@H](c2ccccc2)N2[C@H]1[C@@H](C(=O)Nc1nc3ccccc3s1)[C@]1(C(=O)Nc3ccccc31)[C@H]2c1ccc(O)cc1	-0.0334
COc1ccc([Si](C)(C)[C@@H]2[C@@H](CC(=O)N3CCC[C@H]3CO)O[C@]3(C(=O)N(C)c4c(Br)cc(C)cc43)[C@H]2C)cc1	0.0781
C=CCN1C(=O)[C@]2(O[C@H](CCO)[C@@H]([Si](C)(C)c3ccc(OC)cc3)[C@@H]2C)c2cc(NC(=O)[C@H](C)O)ccc21	-0.191
O=C1c2ccccc2[C@@]2(Cc3ccccc3N(Cc3ccccc3)C2=O)[C@H](c2ccc(CO)cc2)N1C1CCCCC1	-0.367
O=C(O)[C@@]1(Cc2ccccc2)N=C(c2ccc(OCCCO)cc2)O[C@H]1c1ccccc1	0.116
